Some molecules, each annotated with its measured residual activity.
biological target: SRSF protein kinase 3 (Homo sapiens); details: at 1 µM;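 also: residual kinase activity expressed as percent of uninhibited control, measured in MOPS buffer at pH 7.0 containing EDTA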
Description: Millipore: Percentage of residual kinase activity of SRPK3 at 1uM relative to control. Control inhibitor: Phosphoric acid* at 0.3uM. Buffer: 8 mM MOPS pH 7.0, 0.2 mM EDTA
The answer is to be given in %; state only the numeric part.

INSERT INTO assay_data (chemical_string, parameter_measured, recorded_measurement) VALUES
  ('CN(C)CCCn1cc(C2=C(c3c[nH]c4ccccc34)C(=O)NC2=O)c2ccccc21', 'residual activity', 113),
  ('COc1cccc(-c2cc(=O)c3ccccc3o2)c1N', 'residual activity', 109),
  ('C[C@@H](N)[C@H]1CC[C@H](C(=O)Nc2ccncc2)CC1', 'residual activity', 96),
  ('CO[C@H]1[C@@H](OC)C[C@H](C)[C@@H](OC)C2=CC(=O)C=C(NC(=O)/C(C)=C/C=C/[C@H](OC)[C@@H](OC(N)=O)/C(C)=C/[C@@H]1C)C2=O', 'residual activity', 116);

For the next question, use this molecule.
I'd like to know its residual activity. The molecule in question is COc1cc2ncc(-c3ccccc3)nc2cc1OC
134
